Cited source for all entries: PubChem BioAssay (NCI)

Test system: UACC-62 melanoma
Test: NCI-60 one-dose screen, 48 h
Details: 10 µM
Description: Growth inhibition of the UACC-62 human tumor cell line is measured as a screen for anti-cancer activity. Cells are grown in 96 well plates and exposed to the test compound for 48 hours. Compounds are tested at a single concentration, which is 10^-5 M for most compounds. The reported endpoint is percent growth (GI% or GIPRCNT), where numbers from 0 - 100% represent growth inhibition, and numbers from -100% - 0 represent cell death. For example, a value of 40 represents 60% growth inhibition. […]
The panel holds about 83,000 compounds, 20% with a hit somewhere; the sample as a whole holds those more often. Activity calls are given as the source filed them. Rule for the calls: active = growth percent below 10; inactive = the rest.
Your answer must be one of the following: label 1 = active, label 0 = inactive

// below: answered molecules
>  <molecule>
Cc1ccc(-c2ccc(SCC(=O)Nc3ccc(Cl)c(C(F)(F)F)c3)nn2)cc1

>  <label value>
label 0

$$$$
>  <molecule>
Cc1ccc2nc(-c3ccc(-c4nnc(SCC(=O)Nc5ccc(Cl)cc5)o4)cc3)[nH]c2c1

>  <label value>
label 0

$$$$
>  <molecule>
CC(C)C1=C[C@@]23CC[C@@H]4[C@](C)(CCC[C@]4(C)C(=O)NCc4ccccc4)[C@H]2C[C@@H]1[C@H]1C(=O)CCC(=O)[C@H]13

>  <label value>
label 0

$$$$
>  <molecule>
C=C1CCC2C3(C)COC(c4cc(F)cc(F)c4)OC3CCC2(C)C1C/C=C1/C(=O)OCC1O (stereo not drawn)

>  <label value>
label 1

$$$$
>  <molecule>
CCC(C)S(=O)(=O)c1oc(-c2ccc(C)cc2)nc1S(=O)(=O)c1ccccc1 (stereo not drawn)

>  <label value>
label 1

$$$$
>  <molecule>
COc1ccc2[nH]c(=O)c(CSc3nccc(-c4ccc(Cl)cc4)n3)cc2c1

>  <label value>
label 0

$$$$
>  <molecule>
Cn1cc(-c2cc(N)n3nc(-c4c[nH]c5ccc(Br)cc45)cc3n2)c2cccnc21

>  <label value>
label 1

$$$$
>  <molecule>
O=c1oc2ccc(-c3ccc(F)cc3F)cc2c(=O)n1-c1ccc(F)c(Cl)c1

>  <label value>
label 1

$$$$
>  <molecule>
CC1=C(c2cc(-c3ccc(Cl)cc3)c(C#N)c(N)n2)C(c2ccccc2)NC(=S)N1 (stereo not drawn)

>  <label value>
label 0

$$$$
>  <molecule>
Cc1ccc(-c2nc(Nc3ccc(C)c(S(N)(=O)=O)c3)c3ccccc3n2)cc1

>  <label value>
label 0

$$$$

## Task For CN1CCN(c2ccc(Nc3nc(NCCCNC(=O)C4CCCCC4)c4sccc4n3)cc2)CC1 , what call appears in the results of this test?
## Result label 0

## Task For CCOC(=O)C1=C(N)N(c2ccc(Cl)cc2)C2=C(C(=O)CC(C)(C)C2)C1c1ccc(N2CCOCC2)cc1 (stereo not drawn) , what call appears in the results of this test?
## Result label 0

## Task For COc1ccc(C2N(c3ccc(Br)cc3)N=C(C(C)=O)N2[C@H]2[C@H](OC(C)=O)O[C@H](COC(C)=O)[C@@H](OC(C)=O)[C@@H]2OC(C)=O)cc1 (stereo partly drawn) , what call appears in the results of this test?
## Result label 0
